target: PI 3-kinase gamma (Homo sapiens (Human)); assay: TR-FRET Adapta assay (Assay E); assay type: biochemical; conditions: read-out: Assay E PI3Kγ IC50
Sequence (P48736 whole entry): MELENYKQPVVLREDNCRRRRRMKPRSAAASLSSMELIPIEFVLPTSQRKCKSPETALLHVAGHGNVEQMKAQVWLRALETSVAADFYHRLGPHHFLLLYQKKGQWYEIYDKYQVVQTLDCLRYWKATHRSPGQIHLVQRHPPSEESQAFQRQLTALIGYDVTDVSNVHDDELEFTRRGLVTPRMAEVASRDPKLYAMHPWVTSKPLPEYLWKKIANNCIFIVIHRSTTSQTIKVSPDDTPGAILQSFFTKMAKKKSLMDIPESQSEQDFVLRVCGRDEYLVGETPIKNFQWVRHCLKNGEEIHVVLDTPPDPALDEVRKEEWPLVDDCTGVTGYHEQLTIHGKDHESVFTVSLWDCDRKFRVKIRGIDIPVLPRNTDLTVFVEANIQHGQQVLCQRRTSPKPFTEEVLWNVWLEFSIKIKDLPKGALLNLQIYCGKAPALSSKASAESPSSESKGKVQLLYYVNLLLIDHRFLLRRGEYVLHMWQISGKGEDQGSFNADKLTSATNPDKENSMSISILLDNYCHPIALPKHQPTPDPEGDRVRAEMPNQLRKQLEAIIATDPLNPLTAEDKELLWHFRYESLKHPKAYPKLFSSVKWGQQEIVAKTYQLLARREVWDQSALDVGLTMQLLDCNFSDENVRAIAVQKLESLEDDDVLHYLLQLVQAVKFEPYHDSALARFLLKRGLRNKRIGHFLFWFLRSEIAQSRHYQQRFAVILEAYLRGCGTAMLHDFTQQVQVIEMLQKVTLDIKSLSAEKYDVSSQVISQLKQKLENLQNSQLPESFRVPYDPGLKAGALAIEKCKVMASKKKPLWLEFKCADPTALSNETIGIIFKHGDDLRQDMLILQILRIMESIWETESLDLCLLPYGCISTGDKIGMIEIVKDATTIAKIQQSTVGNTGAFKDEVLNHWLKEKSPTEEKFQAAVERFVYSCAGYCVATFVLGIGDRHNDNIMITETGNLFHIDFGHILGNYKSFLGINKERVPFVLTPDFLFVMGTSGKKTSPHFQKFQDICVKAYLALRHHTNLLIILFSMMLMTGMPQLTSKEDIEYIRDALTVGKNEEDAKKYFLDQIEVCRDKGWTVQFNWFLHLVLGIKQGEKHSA
One threshold, 20 nM, splits the recorded IC50 values: lower ones are 1 (yes), equal or higher ones are 0 (no).

1. Cc1ccc(S(=O)(=O)NCC2(C)COC2)cc1-c1cncc(-c2cn(C)nc2C)n1: 1 (yes)
2. Cc1ncc(-c2cncc(-c3cc(S(=O)(=O)N[C@H]4CC[C@H](O)CC4)ccc3C)n2)s1: 1 (yes)
3. Cc1ccc(S(=O)(=O)NCCC(C)(C)O)cc1-c1cncc(-c2cnn(CCN3CCOCC3)c2)n1: 0 (no)
4. Cc1ccc(S(=O)(=O)NCCC(C)(C)O)cc1-c1cncc(-c2cn(C)nc2C)n1: 0 (no)
5. Cc1ccc(S(=O)(=O)NCCC(C)(C)O)cc1-c1cncc(-c2cn(CCN3CCOCC3)nc2C)n1: 0 (no)
6. Cc1ccc(S(=O)(=O)N[C@H]2CC[C@H](O)CC2)cc1-c1cncc(-c2cccnc2)n1: 0 (no)
7. Cc1ccc(S(=O)(=O)NCC(C)(C)O)cc1-c1cncc(-c2cn(C)nc2C)n1: 1 (yes)
8. Cc1ncc(-c2cncc(-c3cc(S(=O)(=O)NCCCO)ccc3C)n2)s1: 0 (no)

* * *

target: PI 3-kinase delta (Homo sapiens (Human)); assay: TR-FRET Adapta assay (Assay F); type: biochemical; settings: read-out: Assay F PI3Kδ IC50
Sequence (O00329 2-1044): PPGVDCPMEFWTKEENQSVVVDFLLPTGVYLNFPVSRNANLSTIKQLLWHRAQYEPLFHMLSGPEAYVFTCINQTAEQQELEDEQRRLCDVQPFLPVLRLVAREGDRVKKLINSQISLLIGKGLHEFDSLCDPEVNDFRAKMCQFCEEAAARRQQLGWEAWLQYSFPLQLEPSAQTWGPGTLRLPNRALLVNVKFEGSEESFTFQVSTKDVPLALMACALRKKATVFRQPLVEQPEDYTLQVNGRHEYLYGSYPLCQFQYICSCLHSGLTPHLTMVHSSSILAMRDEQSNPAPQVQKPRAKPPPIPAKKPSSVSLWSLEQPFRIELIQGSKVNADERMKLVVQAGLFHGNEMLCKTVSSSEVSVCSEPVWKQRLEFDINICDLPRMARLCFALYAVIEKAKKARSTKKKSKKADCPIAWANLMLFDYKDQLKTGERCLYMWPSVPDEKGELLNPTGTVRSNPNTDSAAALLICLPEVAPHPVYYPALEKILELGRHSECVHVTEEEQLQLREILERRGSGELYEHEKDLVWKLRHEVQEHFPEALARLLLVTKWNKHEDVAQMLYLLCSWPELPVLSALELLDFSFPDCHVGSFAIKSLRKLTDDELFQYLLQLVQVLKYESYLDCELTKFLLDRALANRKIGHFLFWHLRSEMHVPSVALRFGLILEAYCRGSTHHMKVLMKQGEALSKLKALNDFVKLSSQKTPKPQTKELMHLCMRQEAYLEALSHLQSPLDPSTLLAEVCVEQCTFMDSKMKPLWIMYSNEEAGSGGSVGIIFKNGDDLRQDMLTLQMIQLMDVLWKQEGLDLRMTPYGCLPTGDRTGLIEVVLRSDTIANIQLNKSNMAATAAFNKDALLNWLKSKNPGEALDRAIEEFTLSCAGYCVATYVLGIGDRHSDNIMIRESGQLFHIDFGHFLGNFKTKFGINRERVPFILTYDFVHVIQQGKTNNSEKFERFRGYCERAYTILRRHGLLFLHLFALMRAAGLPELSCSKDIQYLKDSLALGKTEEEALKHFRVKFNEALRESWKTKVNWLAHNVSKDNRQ
Overview of reported IC50 across a group of compounds:
measure: IC50 (nM)

1. Cc1ncc(-c2cncc(-c3cc(S(=O)(=O)NCCCO)ccc3C)n2)s1: 200
2. Cc1ccc(S(=O)(=O)NCC(C)(C)O)cc1-c1cncc(-c2cn(C)nc2C)n1: 60
3. Cc1ccc(S(=O)(=O)NCC(C)(C)CO)cc1-c1cncc(-c2cn(C)nc2C)n1: 70
4. Cc1ccc(S(=O)(=O)NCCC(C)(C)O)cc1-c1cncc(-c2cnn(CCN3CCOCC3)c2)n1: 10
5. Cc1ncc(-c2cncc(-c3cc(S(=O)(=O)N[C@H]4CC[C@H](O)CC4)ccc3C)n2)s1: 90
6. Cc1ccc(S(=O)(=O)NCCC(C)(C)O)cc1-c1cncc(-c2cn(CCN3CCOCC3)nc2C)n1: 20
7. Cc1ccc(S(=O)(=O)NCC2(C)COC2)cc1-c1cncc(-c2cn(C)nc2C)n1: 70
8. Cc1ccc(S(=O)(=O)NCCC(C)(C)O)cc1-c1cncc(-c2cn(C)nc2C)n1: 70
9. Cc1ccc(S(=O)(=O)N[C@H]2CC[C@H](O)CC2)cc1-c1cncc(-c2cccnc2)n1: 120

* * *

target: mTOR (Homo sapiens (Human), UniProt P42345)
pIC50: −log10 of the molar value.
This listing pairs compounds with measured pIC50.
measure: pIC50

1) Cc1ncc(-c2cncc(-c3cc(S(=O)(=O)NCCCO)ccc3C)n2)s1: 5.28
2) Cc1ccc(S(=O)(=O)NCCC(C)(C)O)cc1-c1cncc(-c2cn(C)nc2C)n1: 5.41
3) Cc1ccc(S(=O)(=O)NCC(C)(C)O)cc1-c1cncc(-c2cn(C)nc2C)n1: 5.93
4) Cc1ccc(S(=O)(=O)NCC(C)(C)CO)cc1-c1cncc(-c2cn(C)nc2C)n1: 5.71
5) Cc1ccc(S(=O)(=O)N[C@H]2CC[C@H](O)CC2)cc1-c1cncc(-c2cccnc2)n1: 5.20
